The reported numbers originate from patent US20210087281A1.

Target: native mouse MET on living cells (mouse, UniProt P16056 25-1379)
Assay: cell-based or functional assay
Use 1 nM as the dividing line for phospho-MET ELISA EC50, MLP29 cells, with the line itself on the Satisfied side and lower values as Not satisfied.

1. 71D4 chimeric llama-human IgG1 mAb (antibody, V domains shown, llama VH on human IgG1 CH1-CH2-CH3, llama VL on human lambda CL) VH: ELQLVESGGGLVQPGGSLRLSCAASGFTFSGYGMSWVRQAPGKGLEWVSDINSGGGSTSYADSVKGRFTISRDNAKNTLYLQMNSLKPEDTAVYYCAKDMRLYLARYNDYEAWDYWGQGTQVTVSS VL: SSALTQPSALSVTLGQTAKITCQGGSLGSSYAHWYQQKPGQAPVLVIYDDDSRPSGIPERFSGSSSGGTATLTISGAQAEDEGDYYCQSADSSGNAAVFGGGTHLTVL = Not satisfied
2. 71G3 chimeric llama-human IgG1 mAb (antibody, V domains shown, llama VH on human IgG1 CH1-CH2-CH3, llama VL on human lambda CL) VH: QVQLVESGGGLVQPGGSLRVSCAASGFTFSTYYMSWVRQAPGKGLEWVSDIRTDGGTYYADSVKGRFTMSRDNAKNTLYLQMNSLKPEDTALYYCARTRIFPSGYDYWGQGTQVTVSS VL: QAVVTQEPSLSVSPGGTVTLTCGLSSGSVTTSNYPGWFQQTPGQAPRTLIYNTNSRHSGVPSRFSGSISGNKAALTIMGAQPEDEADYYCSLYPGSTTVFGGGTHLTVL = Not satisfied
3. 71G2 chimeric llama-human IgG1 mAb (antibody, V domains shown, llama VH on human IgG1 CH1-CH2-CH3, llama VL on human lambda CL) VH: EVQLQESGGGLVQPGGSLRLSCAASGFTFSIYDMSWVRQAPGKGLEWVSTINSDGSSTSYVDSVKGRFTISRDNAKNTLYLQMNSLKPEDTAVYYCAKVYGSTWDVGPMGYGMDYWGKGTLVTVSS VL: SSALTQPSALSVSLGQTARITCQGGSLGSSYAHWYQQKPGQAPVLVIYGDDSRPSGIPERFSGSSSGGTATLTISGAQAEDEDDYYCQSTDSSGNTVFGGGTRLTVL = Not satisfied
4. 76G7 chimeric llama-human IgG1 mAb (antibody, V domains shown, llama VH on human IgG1 CH1-CH2-CH3, llama VL on human lambda CL) VH: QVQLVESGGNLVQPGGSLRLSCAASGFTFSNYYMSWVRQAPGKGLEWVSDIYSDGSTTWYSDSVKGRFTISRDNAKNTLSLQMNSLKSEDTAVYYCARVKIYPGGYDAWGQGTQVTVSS VL: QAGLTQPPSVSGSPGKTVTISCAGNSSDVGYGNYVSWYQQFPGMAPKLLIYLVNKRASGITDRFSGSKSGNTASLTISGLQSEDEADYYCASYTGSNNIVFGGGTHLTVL = Satisfied
5. 76H10 chimeric llama-human IgG1 mAb (antibody, V domains shown, llama VH on human IgG1 CH1-CH2-CH3, llama VL on human lambda CL) VH: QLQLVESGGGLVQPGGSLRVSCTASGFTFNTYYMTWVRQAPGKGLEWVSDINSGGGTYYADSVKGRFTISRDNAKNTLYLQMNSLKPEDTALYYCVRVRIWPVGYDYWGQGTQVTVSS VL: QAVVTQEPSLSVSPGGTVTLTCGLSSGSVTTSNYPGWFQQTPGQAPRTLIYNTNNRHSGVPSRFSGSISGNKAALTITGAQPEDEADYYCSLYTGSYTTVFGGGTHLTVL = Satisfied
